# test.name: inhibitors of TNFa-induced NFkB p65 translocation, primary screen, imaging, HUVEC, MLSMR starter and 10KST1 sets (AID 438);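 note: compound added about 3h40 before a 20 min TNFalpha stimulation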
# condition.description: HUVEC TNFa-induced p65 nuclear translocation; measured here: nuclei count (cytotoxicity indicator), at 2.08 µM
measurement.label: cell count
Numbers only.

>>> print(df.to_string())
                                   compound  measured_number
0  Nc1nc(N2C(=O)C3CC=CCC3C2=O)nn1-c1ccccc1 (stereo unspecified)              444
1  CC1(C(=O)CSc2ncn[nH]2)CCC(=O)O1 (stereo unspecified)              643
2  CCOC(=O)C(C(=O)OCC)N(C#N)c1nc(SC)nc(N(C)C)n1              607
3            CCCOc1ccc2ccccc2c1/C=N/n1cnnc1              209
4                     O=C(c1ccccc1)c1ccncc1              391

# ---- query compound ----
Ask: Item under review: `COCc1nnc(NC(=O)c2ccc(S(=O)(=O)N(C)c3ccccc3)cc2)o1` . Reported cell count?
Result: 716

###

For each record, write down the corresponding inhibition.
# test.name: inhibitors of TNFa-induced NFkB p65 translocation, primary screen, imaging, HUVEC, MLSMR starter and 10KST1 sets (AID 438);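 note: compound added about 3h40 before a 20 min TNFalpha stimulation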;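 for inhibition: signal is the nuclear over cytoplasmic p65 intensity ratio per well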
# condition.description: HUVEC TNFa-induced p65 nuclear translocation; at 2 µM, stronger effect = higher value, 0% TNFa-plus-vehicle, 100% no-TNFa wells
Answers are plain numbers, in %.

>>> print(df.to_string())
                                   compound  unit_tag  measured_number
0  O=C(c1ccc(CSCc2ccccc2F)o1)N1CCN(c2ccc(N3CCOCC3)nn2)CC1         %            -13.1
1  COCCNC(=O)CN1CCN(C(c2ccccc2)c2ccccc2)CC1         %             -6.6
2  CC(CCc1ccco1)NC(=O)Cn1ncc2c1-c1ccccc1OC2 (stereo unspecified)         %             -3.2
3  O=C(O)c1ccccc1S(=O)(=O)NCC(O)COc1ccc(Br)cc1 (stereo unspecified)         %              3.5
4    Cc1ccc(CCC(=O)Nc2ccc(S(N)(=O)=O)cc2)o1         %                0

Now for another entry.
Ask: So what does the record say about inhibition for `N#C/C(C(=O)N1CCCCC1)=C1\Nc2ccccc2S1` ?
Result: 6.4

###

# test.name: inhibitors of poly I:C-induced TLR3 signaling, primary screen, cell-based, poly I:C stimulus, luciferase, 10K MLSCN set (AID 602277)
# condition.description: HEK293-TLR3 RL24 IRF3 luciferase reporter, at 10 µM, stronger effect = higher value
measurement.label: inhibition (%)
Answers are plain numbers, in %.

Guide cases for inhibition, answers given:
>>> df
                                   molecule  unit_tag  measured_number
0  COc1cc(Cl)c(C)cc1NC(=O)COC(=O)c1cnc(C)cn1         %             12.5
1          CCOC(=O)C1=C(c2ccccc2)N2CCN=C2S1         %             6.97
2      NC(=O)c1ccccc1NC(=O)CCCN1C(=O)CCC1=O         %             13.3
3           Cc1ccc(CSC2=NCCN2C(=O)C2CC2)cc1         %             11.8

// each listed molecule needs a value for inhibition
1. O=C(O)c1cccc(S(=O)(=O)N2CCOCC2)c1
2. Cc1ccc2c(C)nc(NC3=NCN(C(C)C)CN3)nc2c1
3. CCN(CC)C(=O)Cn1c(=O)n(Cc2ccccc2Cl)c2c1c(=O)n(C)c(=O)n2C
4. O=C(O)C1C2C=CC3(CN(C4CCCC4)C(=O)C13)O2 (stereo unspecified)
5. Cc1cc(C)n2c(SCCN3C(=O)c4ccccc4C3=O)nnc2n1
6. Cc1ccc(Cn2c(SCCN3CCCCC3)nc3c2c(=O)[nH]c(=O)n3C)cc1

Result:
1: -15.1; 2: 14.9; 3: 10.3; 4: 38; 5: 24.4; 6: 32.9

Ask: I would be grateful if you could share the reported inhibition for `CCN(CC)CCn1c(=N)n(CCO)c2ccccc21` .
Result: 39.8
